Exercise: for every item that follows, state its recorded pEC50.
- SYSTEM_UNDER_TEST: S1P3 (membranes from EDG3-Ga15-bla HEK293T cells) (Homo sapiens (Human), UniProt Q99500)
- Sequence (Q99500 whole entry): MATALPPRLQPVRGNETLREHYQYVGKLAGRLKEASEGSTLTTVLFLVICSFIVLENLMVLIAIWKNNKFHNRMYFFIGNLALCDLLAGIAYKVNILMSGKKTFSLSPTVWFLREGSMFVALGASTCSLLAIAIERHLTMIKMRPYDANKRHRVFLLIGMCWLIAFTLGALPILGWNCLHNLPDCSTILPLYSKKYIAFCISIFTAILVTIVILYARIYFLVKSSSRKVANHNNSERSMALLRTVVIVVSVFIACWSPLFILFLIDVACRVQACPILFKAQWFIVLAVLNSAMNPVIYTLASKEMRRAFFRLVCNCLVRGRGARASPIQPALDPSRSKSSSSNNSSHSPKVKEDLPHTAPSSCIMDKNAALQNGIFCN
- EXPERIMENTAL_DETAILS: Receptor [35S] GTPγS Binding Assay, S1P3
- REPORTED_CONDITIONS: detection limit 31250 nM
Numbers only, as −log10 of the molar value.

For orientation, consider the following solved cases.
| COMPOUND | QUANTITATIVE_READOUT |
| --- | --- |
| O=C(O)CC1CCCN([C@@H]2COc3cc(-c4noc(-c5onc(-c6ccccc6)c5C(F)(F)F)n4)ccc3[C@@H]2O)C1 (single isomer, unassigned) | 4.62 |
| O=C(O)CN[C@@H]1COc2cc(-c3noc(-c4onc(-c5ccccc5)c4C(F)(F)F)n3)ccc2[C@@H]1O | 5.28 |
| O=C(O)CCN[C@H]1COc2cc(-c3noc(-c4onc(-c5ccccc5)c4C(F)(F)F)n3)ccc2[C@@H]1O (racemic) | 4.60 |
| O=C(O)CCN[C@@H]1COc2cc(-c3noc(-c4onc(-c5ccccc5)c4C(F)(F)F)n3)ccc2[C@@H]1O | 4.66 |

Consider the additional compound presented here.
Input: Would you kindly share the measured pEC50 for O=C(O)[C@H]1C[C@@H](N[C@H]2COc3cc(-c4noc(-c5onc(-c6ccccc6)c5C(F)(F)F)n4)ccc3[C@H]2O)C1 ?
Output: 4.92

====

So I've got a bunch of compounds here, and I need their log10 of EC50 values.
- SYSTEM_UNDER_TEST: S1P1 (membranes from S1P1/CHO cells) (Homo sapiens (Human), UniProt P21453)
- Sequence (P21453 whole entry): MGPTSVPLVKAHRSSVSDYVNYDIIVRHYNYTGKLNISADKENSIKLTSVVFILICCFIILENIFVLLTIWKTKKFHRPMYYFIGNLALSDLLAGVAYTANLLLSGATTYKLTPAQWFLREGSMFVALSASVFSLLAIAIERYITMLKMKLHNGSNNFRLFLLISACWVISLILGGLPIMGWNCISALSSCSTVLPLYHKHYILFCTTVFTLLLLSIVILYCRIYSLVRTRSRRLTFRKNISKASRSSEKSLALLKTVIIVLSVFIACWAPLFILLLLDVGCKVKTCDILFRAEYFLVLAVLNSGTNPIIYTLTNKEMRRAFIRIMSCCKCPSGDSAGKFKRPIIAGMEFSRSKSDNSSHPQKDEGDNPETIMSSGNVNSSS
- EXPERIMENTAL_DETAILS: Receptor [35S] GTPγS Binding Assay, S1P1
- Format: biochemical
- REPORTED_CONDITIONS: S1P1/CHO membranes
- Procedure: Receptor [35S] GTPγS Binding Assays Compounds were loaded in a 384 FALCON® v-bottom plate (0.5 μl/well in a 3-fold dilution). Membranes prepared from S1P1/CHO cells or EDG3-Ga15-bla HEK293T cells were added to the compound plate (40 μl/well, final protein 3 μg/well) with MULTIDROP®. [^35S]GTP (1250 Ci/mmol, Perkin Elmer) was diluted in assay buffer: 20 mM HEPES, pH7.5, 10 mM MgCl2, 150 mM NaCl, 1 mM EGTA, 1 mM DTT, 10 μM GDP, 0.1% fatty acid free BSA, and 10 μg/ml Saponin to 0.4 nM. […]
Transform log10 | Measure EC50 | Unit nM

Some solved cases for reference:
| COMPOUND | SYSTEM_UNDER_TEST | ASSAY_READOUT | QUANTITATIVE_READOUT |
| --- | --- | --- | --- |
| N[C@@H]1COc2cc(-c3noc(-c4onc(-c5ccccc5)c4C(F)(F)F)n3)ccc2[C@@H]1O | S1P1 (membranes from S1P1/CHO cells) (Homo sapiens (Human), UniProt P21453) | log10 of EC50 | 1.52 |
| O=C(O)[C@@H]1CCC[C@@H](N[C@@H]2COc3cc(-c4noc(-c5onc(-c6ccccc6)c5C(F)(F)F)n4)ccc3[C@@H]2O)C1 | S1P1 (membranes from S1P1/CHO cells) (Homo sapiens (Human), UniProt P21453) | log10 of EC50 | 0.04 |
| CCOC(=O)C1CCCC(N[C@@H]2COc3cc(-c4noc(-c5onc(-c6ccccc6)c5C(F)(F)F)n4)ccc3[C@@H]2O)C1 (relative stereo) | S1P1 (membranes from S1P1/CHO cells) (Homo sapiens (Human), UniProt P21453) | log10 of EC50 | 2.20 |
| O=C(O)C1(CN[C@@H]2COc3cc(-c4noc(-c5onc(-c6ccccc6)c5C(F)(F)F)n4)ccc3[C@@H]2O)CCC1 | S1P1 (membranes from S1P1/CHO cells) (Homo sapiens (Human), UniProt P21453) | log10 of EC50 | 1.20 |
| O=C(O)C1(CN[C@@H]2COc3cc(-c4noc(-c5onc(-c6ccccc6)c5C(F)(F)F)n4)ccc3[C@@H]2O)CC1 | S1P1 (membranes from S1P1/CHO cells) (Homo sapiens (Human), UniProt P21453) | log10 of EC50 | 0.81 |
| O=C(O)[C@H]1CCC[C@H](N[C@@H]2COc3cc(-c4noc(-c5onc(-c6ccccc6)c5C(F)(F)F)n4)ccc3[C@@H]2O)C1 | S1P1 (membranes from S1P1/CHO cells) (Homo sapiens (Human), UniProt P21453) | log10 of EC50 | 0.00 |

Attention now turns to another entry.
Input: // query log10 of EC50 value for entry N[C@@H]1COc2cc(-c3noc(-c4onc(-c5ccccc5)c4C(F)(F)F)n3)ccc2[C@H]1O (racemic)
Output: 1.90

====

For each of the molecules below, state its pEC50.
- SYSTEM_UNDER_TEST: S1P1 (membranes from S1P1/CHO cells) (Homo sapiens (Human), UniProt P21453)
- EXPERIMENTAL_DETAILS: Receptor [35S] GTPγS Binding Assay, S1P1
- REPORTED_CONDITIONS: S1P1/CHO membranes
One number for each entry, as −log10 of the molar value.

Example molecules with recorded pEC50:
| MOLECULE | ASSAY_READOUT | QUANTITATIVE_READOUT |
| --- | --- | --- |
| O=C(O)C1(CN[C@@H]2COc3cc(-c4noc(-c5onc(-c6ccccc6)c5C(F)(F)F)n4)ccc3[C@@H]2O)CCCCC1 [Example 39] | pEC50 | 7.07 |
| O=C(O)CN[C@@H]1COc2cc(-c3noc(-c4onc(-c5ccccc5)c4C(F)(F)F)n3)ccc2[C@@H]1O [Example 68] | pEC50 | 8.27 |

// switching to the query molecule
Input: So what does the record say about pEC50 for O=C(O)CC1CCCN([C@@H]2COc3cc(-c4noc(-c5onc(-c6ccccc6)c5C(F)(F)F)n4)ccc3[C@@H]2O)C1 (single isomer, unassigned) [Example 50] ?
Output: 7.57

====

So I've got a bunch of compounds here, and I need their GTPγS S1P3/S1P1 (ratio of GTPγS S1P3 EC50 to GTPγS S1P1 EC50) values.
- SYSTEM_UNDER_TEST: S1P1 (membranes from S1P1/CHO cells) (Homo sapiens (Human), UniProt P21453)
- EXPERIMENTAL_DETAILS: Receptor [35S] GTPγS Binding Assay, S1P1
- Type: biochemical
- REPORTED_CONDITIONS: calculated from Table B; S1P3 detection limit 31250 nM
Give bare numbers.

Example entries and their recorded answers appear below.
| COMPOUND | QUANTITATIVE_READOUT |
| --- | --- |
| O=C(O)CN[C@@H]1COc2cc(-c3noc(-c4onc(-c5ccccc5)c4C(F)(F)F)n3)ccc2[C@@H]1O | 960 |
| O=C(O)[C@H]1CCC[C@H](N[C@@H]2COc3cc(-c4noc(-c5onc(-c6ccccc6)c5C(F)(F)F)n4)ccc3[C@@H]2O)C1 | 7300 |
| O=C(O)CC1CCCN([C@@H]2COc3cc(-c4noc(-c5onc(-c6ccccc6)c5C(F)(F)F)n4)ccc3[C@@H]2O)C1 (single isomer, unassigned) | 870 |

Please supply GTPγS S1P3/S1P1 (ratio of GTPγS S1P3 EC50 to GTPγS S1P1 EC50) for each of the following items, keeping them in order.
1. O=C(O)C1(CN[C@@H]2COc3cc(-c4noc(-c5onc(-c6ccccc6)c5C(F)(F)F)n4)ccc3[C@@H]2O)CCC1
2. O=C(O)[C@@H]1CCC[C@@H](N[C@@H]2COc3cc(-c4noc(-c5onc(-c6ccccc6)c5C(F)(F)F)n4)ccc3[C@@H]2O)C1
3. O=C(O)C1(CN[C@@H]2COc3cc(-c4noc(-c5onc(-c6ccccc6)c5C(F)(F)F)n4)ccc3[C@@H]2O)CC1
4. N[C@@H]1COc2cc(-c3noc(-c4onc(-c5ccccc5)c4C(F)(F)F)n3)ccc2[C@H]1O (relative stereo)
5. N[C@@H]1COc2cc(-c3noc(-c4onc(-c5ccccc5)c4C(F)(F)F)n3)ccc2[C@@H]1O

Output:
510
9600
1200
160
260
